FYI, the data here is from ChEMBL document CHEMBL6109036.

System: Helicobacter pylori
Test: Anti-bacterial activity against Helicobacter pylori Clinical isolate 23 measured after 72 hrs incubation by modified broth dilution method
Type: functional
quantity_name: MIC (µg/mL)

A selection of reference data follows.
COc1ccc(/N=N/c2cc(C(C)C)c(OC(=O)N(C)C)cc2C)cc1: 64
Cc1cc(O)c(C(C)C)cc1/N=N/c1ccccc1Cl: 4
Cc1cc(O)c(C(C)C)cc1/N=N/c1ccc([N+](=O)[O-])cc1: 2
C/C=C/c1ccc(O)c(OC)c1: 32
COc1cc(C=O)cc(/N=N/c2ccc(Br)cc2)c1O: 32

a. COc1cccc(C=O)c1O
b. COc1ccc(/N=N/c2cc(C(C)C)c(O)cc2C)cc1
### Prompt # compare MIC for a vs b ; return the one with the smaller value Please reply using the label of the selected record.
### Response b
